Measurement target: T1, Human EphA2 (Ecto), C-terminal polyHis (Human, UniProt P29317 24-537)
T1 construct: extracellular domain; R&D systems 3035-A2 or in-house
T1 sequence (P29317 24-537): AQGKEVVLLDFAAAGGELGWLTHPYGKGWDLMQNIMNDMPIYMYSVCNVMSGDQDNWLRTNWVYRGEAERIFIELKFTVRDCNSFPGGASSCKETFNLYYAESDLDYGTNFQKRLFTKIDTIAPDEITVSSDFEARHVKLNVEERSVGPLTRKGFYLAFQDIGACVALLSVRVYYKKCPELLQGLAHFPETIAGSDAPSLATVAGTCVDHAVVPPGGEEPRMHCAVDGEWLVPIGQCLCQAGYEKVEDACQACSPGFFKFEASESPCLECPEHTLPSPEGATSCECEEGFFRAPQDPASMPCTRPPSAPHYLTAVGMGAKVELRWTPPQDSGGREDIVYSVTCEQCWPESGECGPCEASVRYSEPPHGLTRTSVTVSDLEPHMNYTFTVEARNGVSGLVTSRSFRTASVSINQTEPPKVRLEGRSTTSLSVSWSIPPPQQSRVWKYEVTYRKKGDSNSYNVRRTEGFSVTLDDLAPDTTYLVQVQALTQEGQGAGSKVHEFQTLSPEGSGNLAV
Test protocol: FP competition vs Reference Compound C
*1 amine or outer side, *2 acyl side, *3 side chain or, on linkers, in order; H or OH if unused. Bridges are numbered along the chain shown (N, C = ends). Where no end group is shown, it is not given here. TATA = O=C(CC[*:1])N1CN(C(=O)CC[*:2])CN(C(=O)CC[*:3])C1
Measure name: Ki (nM)
# value in nM; strip the unit string

# Binder, Measure name, Units symbol, Val
records = [
    ("ACGFMGLEPCELYCAHT (linker 2-10-14 via TATA; not fully specified (C-terminus)) [Compound 49]", "Ki", "nM", 144),
    ("SRPCVIDSRCAYMNVCA (linker 4-10-16 via TATA) [Compound 19]", "Ki", "nM", 94.8),
]

Proceeding to the next binder to report its Ki.
query: Find the recorded Ki belonging to ACVPDRRCAYMNVCA (linker 2-8-14 via TATA) [Compound 16] and report it.
result: 70
